Ref: patent US9221781B2

What inhibition at 1 µM was measured for each of the following?
- System: BEL-7402 cells
- Assay details: Inhibition of liver cancer cell BEL-7402 in vitro by SRB
- Assay type: cell-based
- Reported conditions: Homo sapiens, 10^−6M, 72 hours, read-out: The inhibition percentage of cell proliferation by the compounds with a concentration of 10^−6M, BEL-7402 cells
Give bare numbers, in %.

Please go through the list and note inhibition at 1 µM for each molecule.
1. CC(C)=CCc1c(O)cc(O)c2c(=O)c(O)c(-c3ccc(Cl)c(Cl)c3)oc12
2. COc1cccc2c1C(=O)c1c(O)c3c(c(O)c1C2=O)C[C@@](O)(C(=O)CO)C[C@@H]3O[C@H]1C[C@H](N)[C@H](O)[C@H](C)O1 [Doxorubicin, reference compound]

OUTPUT:
[14.9, 55.2]

Please go through the list and note inhibition at 1 µM for each molecule.
1. CC(C)=CCc1c(O)cc(O)c2c(=O)c(O)c(-c3ccc(Cl)cc3)oc12
2. CC(C)=CCc1c(O)cc(O)c2c(=O)c(O)c(-c3ccc(Cl)c(F)c3)oc12

OUTPUT:
1: 46.4; 2: 28.6

---

- System: Daudi cells
- Assay details: Inhibition of human B lymphoma Daudi cells by CellTiter-Glo Luminescent Assay in vitro
- Format: cell-based
- Reported conditions: 72 hours, read-out: Inhibition of viability of cells in vitro IC50, Daudi cells
Measurement label: pIC50
One number for each entry, as −log10 of the molar value.

INPUT: I would be grateful if you could share the reported pIC50 for Nc1ccn([C@@H]2O[C@H](CO)[C@@H](O)[C@@H]2O)c(=O)n1 [cytarabinen, reference compound] .
OUTPUT: 5.00

---

- Tested on: colon cancer LS174T cells
- Assay details: Inhibition of colon cancer cells LS174T in vitro by MTT method
- Assay type: cell-based
- Reported conditions: Homo sapiens, 72 hours, FIG. 6, read-out: IC50, in vitro inhibition on cell line LS174T of colon carcinoma
- Procedure: A: Inhibition of Colon Cancer Cells LS174T In Vitro by the Compounds by MTT Method The colon cancer LS174T cells were subseeded in a 96-well culture plate at a concentration of 4.5×10^3 cells/well and maintained in phenol red free 1640 medium containing 2.5% CS-FBS at 37° C. in a 5% CO2 atmosphere. […] OD value was tested by MTT method, and the inhibition percentage was calculated.
Measurement label: IC50

INPUT: I would be grateful if you could share the reported IC50 for `CC(C)=CCc1c(O)cc(O)c2c(=O)c(O)c(-c3ccc(C(F)(F)F)cc3)oc12` .
OUTPUT: 1000 to 4000 nM

---

- System: pancreatic cancer PANC-1 cells
- Assay details: Inhibition of pancreatic cancer cells PANC-1 in vitro by MTT method
- Format: cell-based
- Reported conditions: Homo sapiens; PANC-1, MTT, 72 hours, FIG. 7; read-out: IC50, in vitro inhibition on cell line PANC-1 of pancreatic cancer
- Experimental: A: Inhibition of Pancreatic Cancer Cells PANC-1 In Vitro by the Compounds by MTT Method The pancreatic cancer PANC-1 cells were subseeded in a 96-well culture plate at a concentration of 3×10^3 cells/well and maintained in phenol red free 1640 medium containing 2.5% CS-FBS at 37° C. in a 5% CO2 atmosphere. […] OD value was tested by MTT method, and the inhibition percentage was calculated.
pIC50: −log10 of the molar value.
Measurement label: pIC50

INPUT: I would be grateful if you could share the reported pIC50 for `CC(C)=CCc1c(O)cc(O)c2c(=O)c(O)c(-c3ccc(C(F)(F)F)cc3)oc12` .
OUTPUT: 5.40 to 6.00
